- System: HepG2
- reported_conditions: human, hepg2 cells, 48 h
readout: Log AC50 (M)
Could you give me the number in M? Just the number is fine.

Recorded results for 5 molecules are shown here.
>  <molecule>
FC(F)(F)c1cnc(N2CCCN(C(S)=Nc3ccccc3)CC2)c(Cl)c1 [MLS000833545-01]

>  <Log AC50 (M)>
-4.3643

$$$$
>  <molecule>
CC1(C)Cc2ccccc2C2=NNC(=O)C2=N1 [MLS000709658-01]

>  <Log AC50 (M)>
-4.4643

$$$$
>  <molecule>
CC(C)(C)c1ccc(-c2cc(C[C@H]3CNCC[C@H]3CC(=O)N3CCN(c4ccccn4)CC3)no2)cc1 [NCGC00400637-01]

>  <Log AC50 (M)>
-4.4143

$$$$
>  <molecule>
CCN(CC)CCn1c(=N)n(CC(O)COc2ccccc2C)c2ccccc21 (stereo not shown) [NCGC00101835-01]

>  <Log AC50 (M)>
-4.5643

$$$$
>  <molecule>
Cc1cc(N2CCN(C)CC2)nc2ccc(NC(=O)Nc3cccc(Cl)c3)cc12 [NCGC00126479-01]

>  <Log AC50 (M)>
-4.3643

$$$$

Data point: O=C(c1n[nH]c2c1CCCC2)N1CCC(n2cc(-c3nc(-c4ccccc4)no3)nn2)CC1 [NCGC00454851-01] ; Log AC50 (M) = -4.5143

Given item Fc1cccc(NC(S)=NNc2c3ccccc3nc3ccccc23)c1 [MLS000660813-01] , the value recorded as its Log AC50 (M) is -6.0143

// sample Cc1nc(N2CCC(NC(=O)c3cc4ccccc4[nH]3)CC2)cc(C(F)(F)F)n1 [NCGC00455533-01] , its Log AC50 (M) was -4.4643

The molecule Cc1cccc(Nc2nc(NCc3ccco3)c3ccccc3n2)c1 [MLS000662793-01] showed Log AC50 (M) equal to -4.3643

// Log AC50 (M) lookup, molecule = CN1CCN(c2ccc3ncc(Nc4ccccc4-c4ccccc4)n3n2)CC1 [NCGC00412547-01] , result: -4.3528

Input Cc1nc(-c2ccccn2)nc(N(C)c2ccccc2)c1Cl [MLS001182279-01] . Output Log AC50 (M): -4.8143

Recorded Log AC50 (M) (molecule CN(C)CC(CCC(CN(C)C)C(O)(c1ccccc1)c1ccccc1)C(O)(c1ccccc1)c1ccccc1 (stereo not shown) [MLS001173677-01] ): -4.4643

// CCN(CC)CCOC(=O)c1ccc(NC(=O)c2cc3c(=O)n(CC)c4ccccc4c3s2)cc1 [NCGC00110417-01] : Log AC50 (M) value = -4.3143

Measured Log AC50 (M) of CCOC(=O)CCCOc1cccn2c(=O)c(-c3cc(C)n(-c4ccc(Cl)cc4)n3)c(C)nc12 [NCGC00473250-01] : -4.8143

// COc1ccc(/C=C/C(=O)Nc2ccc3nc4c(c(Nc5ccccc5OC)c3c2)CCCC4)cc1 [NCGC00104041-01] : Log AC50 (M) value = -4.4643

----------
- Tested on: Plasmodium falciparum Dd2 asexual blood stage parasites
- assay_remarks: microbe, parasite or virus in culture
- Set-up: species or system Plasmodium falciparum Dd2 in human erythrocytes; single determination (one 11-point concentration-response curve)
- reported_conditions: Plasmodium falciparum, DD2, Erythrocyte, 72 h; read-out: AC50
Entries and their AC50 values follow.
Respond with the bare value in µM.

Previously resolved entries follow.
>  <compound>
CCOC(=O)c1cnn(-c2ccc(C(=O)Nc3ccc(C(C)=O)cc3)cc2)c1N [NCGC00137680-01]

>  <u>
µM

>  <AC50>
4.73

$$$$
>  <compound>
Cc1c(O)c(CN2CCCCC2)cc2c1oc(=O)c1ccccc12 [MLS000551544-01]

>  <u>
µM

>  <AC50>
0.75

$$$$
>  <compound>
O=C(NCCc1c[nH]c2ccccc12)[C@@H]1C[C@H]2C(=O)NCCCCCCN(C(=O)c3ccco3)[C@H]2C1 [NCGC00465014-01]

>  <u>
µM

>  <AC50>
10.6

$$$$

Now for the compound whose AC50 we want.
Item: c1ccc(CCNc2ccnc3cc4ccccc4cc23)cc1 [MLS000717866-01] | AC50: 1.68

Measured values drawn from paper PMC7822874 for this set.
